Hello, the source for this data is the supplement of paper PMC10567573, in case you need it.

// protein stability index lookup, one value per entry
B1: MMP1 (parent)
chain: MFFKDRFYMRTNPFYPEVELNFIS

Variants of: B1
test-protocol: protein stability index of a GFP-peptide fusion (GPS, HEK-293T) (PSI 1-6); higher = more stable;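 also: lentivirally expressed fusions sorted by FACS into six bins by GFP to DsRed ratio, PSI derived from sequencing read proportions per bin multiplied by bin number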
experimental-setup: c terminus: a fixed tail appended
Answer field: number only, no words.

The following variants have reported results that may help.
{"sequence-change": "T11N", "endpoint-value": 2.96}
{"sequence-change": "I23C", "endpoint-value": 2.81}

Ask: Would you mind telling me what protein stability index value was observed for F2M ?
Reply: 2.02

Ask: Give its protein stability index value. Item: E17Y
Reply: 2.42

Ask: Using the record for F3R , report its protein stability index.
Reply: 1.55

Ask: // lookup protein stability index for M9I
Reply: 2.02

Ask: So what does the record say about protein stability index for I23T ?
Reply: 1.56
